- system tested: Human α4β2 nAChR (Homo sapiens, UniProt P17787+P43681)
- Construct: expressed in transfected cells; host or cells: SH-EP1 clonal cells expressing human α4β2
- Sequence (P43681 29-627 limits assumed): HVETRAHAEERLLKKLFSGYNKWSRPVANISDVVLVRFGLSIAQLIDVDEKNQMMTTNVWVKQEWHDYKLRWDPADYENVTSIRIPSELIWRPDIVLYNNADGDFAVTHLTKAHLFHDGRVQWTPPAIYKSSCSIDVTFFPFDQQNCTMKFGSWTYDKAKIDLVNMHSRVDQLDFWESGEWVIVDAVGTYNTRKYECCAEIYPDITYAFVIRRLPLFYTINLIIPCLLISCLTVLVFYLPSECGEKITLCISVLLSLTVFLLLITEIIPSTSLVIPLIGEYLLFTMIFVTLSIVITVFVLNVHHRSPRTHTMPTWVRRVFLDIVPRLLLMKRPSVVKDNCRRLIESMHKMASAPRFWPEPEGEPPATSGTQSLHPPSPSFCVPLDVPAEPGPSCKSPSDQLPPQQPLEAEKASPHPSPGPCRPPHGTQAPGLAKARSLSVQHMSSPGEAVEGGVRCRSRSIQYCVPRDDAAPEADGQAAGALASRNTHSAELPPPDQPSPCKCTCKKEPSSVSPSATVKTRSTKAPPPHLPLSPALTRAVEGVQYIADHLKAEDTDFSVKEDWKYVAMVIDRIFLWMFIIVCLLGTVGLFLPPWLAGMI
- Sequence (P17787 26-502): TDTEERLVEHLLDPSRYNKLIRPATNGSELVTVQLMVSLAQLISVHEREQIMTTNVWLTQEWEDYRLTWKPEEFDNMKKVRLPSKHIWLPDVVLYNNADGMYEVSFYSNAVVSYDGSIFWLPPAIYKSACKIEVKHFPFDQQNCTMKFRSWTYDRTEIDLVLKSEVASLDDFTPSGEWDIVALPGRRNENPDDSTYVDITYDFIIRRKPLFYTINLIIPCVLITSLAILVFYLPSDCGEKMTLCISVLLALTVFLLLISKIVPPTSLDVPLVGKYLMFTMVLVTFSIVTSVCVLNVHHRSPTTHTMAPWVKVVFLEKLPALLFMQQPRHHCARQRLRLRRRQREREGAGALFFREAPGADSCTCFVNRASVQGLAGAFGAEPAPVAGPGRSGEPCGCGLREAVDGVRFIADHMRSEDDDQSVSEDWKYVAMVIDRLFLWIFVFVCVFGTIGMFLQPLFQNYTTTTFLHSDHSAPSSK
- protocol details: Radioligand binding ([3H]nicotine) at α4β2 nAChR, membranes from SH-EP1/human α4β2 clonal cells
- condition info: read-out: Human α4β2 Ki
measured parameter: Ki

Examples with their reported Ki follow.
c1cncc(N2CC3CC(C2)CN(C2CCCNC2)C3)c1 (stereo not drawn) :: 0.79 nM
c1cncc(N2CC3CC(C2)CN(C2CCCNCC2)C3)c1 (stereo not drawn) :: 0.45 nM

Could you now consider this next compound?
Param readout = Ki; param system = Human α4β2 nAChR (Homo sapiens, UniProt P17787+P43681); param query = c1cncc(N2CC3CC(C2)CN(C2CCNC2)C3)c1 (stereo not drawn) ; response: value
0.16 nM
